molecular target: amyloid plaques in 5xFAD mice brain sections (Homo sapiens); construct: the amyloid beta (Aβ) peptide that makes up amyloid plaques; tissue Jackson Laboratories; host or cells: brain sections from 11-month-old 5xFAD transgenic mice (Tg6799 line); experiment: Histological staining of 5xFAD mice brain sections, colocalization with HJ3.4 antibody; type: binding, mouse; conditions: 11-month-old 5xFAD mice brain sections, compound 25 μM, HJ3.4 1 μg/mL
Quick reference for Pearson's coefficient (R) of colocalization with AF594-HJ3.4 among some compounds
// keep it numeric: no unit symbol after the value

Measured Pearson's coefficient (R) of colocalization with AF594-HJ3.4 for this entry CNc1ccc(/C=C/c2ccc(O)c(CN3CCN(C)CCN(C)CC3)c2)cc1 on amyloid plaques in 5xFAD mice brain sections (Homo sapiens): 0.72

Record COc1cc(/C=C/c2ccc(N3CCCCC3)cc2)cc(CN2CCN(C)CCN(C)CC2)c1O ; system amyloid plaques in 5xFAD mice brain sections (Homo sapiens); Pearson's coefficient (R) of colocalization with AF594-HJ3.4 = 0.66

Entry COc1cc(/C=C/c2ccc(N3CCOCC3)cc2)cc(CN2CCN(C)CCN(C)CC2)c1O , tested on amyloid plaques in 5xFAD mice brain sections (Homo sapiens), has a reported Pearson's coefficient (R) of colocalization with AF594-HJ3.4 of 0.71

----------
target: Aβ42 fibrils (Homo sapiens); construct: commercial Aβ42 peptide (AnaSpec or GL Biochem); purchased AnaSpec or GL Biochem; assay: Fluorescence spectra of compounds with Aβ42 fibrils; assay type: binding; conditions: excitation 380 nm; compound 5.0 µM in PBS with Aβ fibrils
Sequence (P05067 672-713 limits assumed): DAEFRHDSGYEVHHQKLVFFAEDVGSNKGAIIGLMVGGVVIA
MEASURED ENDPOINT: Compound+Fibrils λem (λmax of emission) (nm)
Respond with the bare value in nm.

Below: 10 compounds and their reported Compound+Fibrils λem (λmax of emission).
{"columns": ["SMILES TEXT", "TEST TARGET", "Compound+Fibrils λem (λmax of emission) [nm]"],
 "data": [
  ["CNc1ccc(/C=C/c2ccc(O)c(CN3CCN(C)CCN(C)CC3)c2)cc1", "Aβ42 fibrils (Homo sapiens)", 430],
  ["CCN(CC)c1ccc(/C=C/c2cc(CN3CCN(C)CCN(C)CC3)c(O)c(OC)c2)cc1", "Aβ42 fibrils (Homo sapiens)", 435],
  ["COc1cc(/C=C/c2ccc(N3CCN(C)CC3)cc2)cc(CN2CCN(C)CCN(C)CC2)c1O", "Aβ42 fibrils (Homo sapiens)", 450],
  ["COc1cc(/C=C/c2ccc(N(C)C)cc2)cc(CN2CCN(C)CCN(C)CC2)c1O", "Aβ42 fibrils (Homo sapiens)", 455],
  ["CCN(CC)c1ccc(/C=C/c2ccc(O)c(CN3CCN(C)CCN(C)CC3)c2)cc1", "Aβ42 fibrils (Homo sapiens)", 430],
  ["COc1cc(/C=C/c2ccc(N3CCOCC3)cc2)cc(CN2CCN(C)CCN(C)CC2)c1O", "Aβ42 fibrils (Homo sapiens)", 450],
  ["COc1cc(/C=C/c2ccc(N3CCCCC3)cc2)cc(CN2CCN(C)CCN(C)CC2)c1O", "Aβ42 fibrils (Homo sapiens)", 430],
  ["CN1CCN(C)CCN(Cc2cc(/C=C/c3ccc(N4CCOCC4)cc3)ccc2O)CC1", "Aβ42 fibrils (Homo sapiens)", 435],
  ["CN1CCN(C)CCN(Cc2cc(/C=C/c3ccc(N4CCN(C)CC4)cc3)ccc2O)CC1", "Aβ42 fibrils (Homo sapiens)", 435],
  ["CNc1ccc(/C=C/c2cc(CN3CCN(C)CCN(C)CC3)c(O)c(OC)c2)cc1", "Aβ42 fibrils (Homo sapiens)", 440]
]}

Notebook: CN1CCN(C)CCN(Cc2cc(/C=C/c3ccc(N4CCCCC4)cc3)ccc2O)CC1 , Compound+Fibrils λem (λmax of emission) read as 430

Summary for this compound, CN1CCN(C)CCN(Cc2cc(/C=C/c3ccc(N(C)C)cc3)ccc2O)CC1 : Compound+Fibrils λem (λmax of emission) is 435

----------
experiment: Log D measurement octanol/PBS; type: physicochemical; details: octanol / PBS pH 7.4, 10 μM, triplicate, ± SD
MEASURED ENDPOINT: logD
Lab note: record just the number, no unit beside it.

{"columns": ["SMILES TEXT", "logD"],
 "data": [
  ["CN1CCN(C)CCN(Cc2cc(/C=C/c3ccc(N4CCN(C)CC4)cc3)ccc2O)CC1", 0.81],
  ["COc1cc(/C=C/c2ccc(N3CCOCC3)cc2)cc(CN2CCN(C)CCN(C)CC2)c1O", 0.93],
  ["CN1CCN(C)CCN(Cc2cc(/C=C/c3ccc(N(C)C)cc3)ccc2O)CC1", 1.44],
  ["CN1CCN(C)CCN(Cc2cc(/C=C/c3ccc(N4CCCCC4)cc3)ccc2O)CC1", 1.29],
  ["CNc1ccc(/C=C/c2cc(CN3CCN(C)CCN(C)CC3)c(O)c(OC)c2)cc1", 1.48],
  ["CN1CCN(C)CCN(Cc2cc(/C=C/c3ccc(N4CCOCC4)cc3)ccc2O)CC1", 1.03],
  ["COc1cc(/C=C/c2ccc(N(C)C)cc2)cc(CN2CCN(C)CCN(C)CC2)c1O", 1.33],
  ["CCN(CC)c1ccc(/C=C/c2ccc(O)c(CN3CCN(C)CCN(C)CC3)c2)cc1", 1.37],
  ["COc1cc(/C=C/c2ccc(N3CCCCC3)cc2)cc(CN2CCN(C)CCN(C)CC2)c1O", 1.35],
  ["COc1cc(/C=C/c2ccc(N3CCN(C)CC3)cc2)cc(CN2CCN(C)CCN(C)CC2)c1O", 0.85]
]}

The compound identified as CNc1ccc(/C=C/c2ccc(O)c(CN3CCN(C)CCN(C)CC3)c2)cc1 registered its logD at 0.98

According to the records, this compound CCN(CC)c1ccc(/C=C/c2cc(CN3CCN(C)CCN(C)CC3)c(O)c(OC)c2)cc1 displays logD of 1.39

----------
Collected Compound+sAβ λem (λmax of emission) values appear next to each entry.
molecular target: soluble Aβ42 aggregates (sAβ) (Homo sapiens, UniProt P05067); construct: commercial Aβ42 peptide (AnaSpec or GL Biochem); purchased AnaSpec or GL Biochem; test: Fluorescence spectra of compounds with soluble Aβ42 aggregates; type: binding; conditions: excitation 380 nm; compound 5.0 µM in PBS with soluble Aβ aggregates
Just the number in nm, nothing appended.

Some solved cases for reference:
{"columns": ["SMILES TEXT", "UNIT LABEL", "Compound+sAβ λem (λmax of emission)"],
 "data": [
  ["COc1cc(/C=C/c2ccc(N(C)C)cc2)cc(CN2CCN(C)CCN(C)CC2)c1O", "nm", 455],
  ["CN1CCN(C)CCN(Cc2cc(/C=C/c3ccc(N4CCN(C)CC4)cc3)ccc2O)CC1", "nm", 430],
  ["CN1CCN(C)CCN(Cc2cc(/C=C/c3ccc(N4CCCCC4)cc3)ccc2O)CC1", "nm", 430]
]}

Form field Compound+sAβ λem (λmax of emission), entry COc1cc(/C=C/c2ccc(N3CCN(C)CC3)cc2)cc(CN2CCN(C)CCN(C)CC2)c1O : 450

Noted for CNc1ccc(/C=C/c2ccc(O)c(CN3CCN(C)CCN(C)CC3)c2)cc1 : its Compound+sAβ λem (λmax of emission) reads 430

Sure, the documented Compound+sAβ λem (λmax of emission) for COc1cc(/C=C/c2ccc(N3CCCCC3)cc2)cc(CN2CCN(C)CCN(C)CC2)c1O is 430

----------
test: Fluorescence spectra of the compounds alone in PBS; type: physicochemical; details: excitation 380 nm; compound 5.0 µM in PBS
Reported values of Compound λem (λmax of emission) for individual entries
Dear colleague, please return just the value in nm, with no unit written.

{"columns": ["COMPOUND", "Compound λem (λmax of emission), nm"],
 "data": [
  ["CN1CCN(C)CCN(Cc2cc(/C=C/c3ccc(N4CCCCC4)cc3)ccc2O)CC1 [Compound L8]", 460]
]}

The value of Compound λem (λmax of emission) measured for the compound COc1cc(/C=C/c2ccc(N(C)C)cc2)cc(CN2CCN(C)CCN(C)CC2)c1O [Compound L1] turned out to be 455

Notebook: CN1CCN(C)CCN(Cc2cc(/C=C/c3ccc(N4CCOCC4)cc3)ccc2O)CC1 [Compound L10] , Compound λem (λmax of emission) read as 455

For this compound ( CCN(CC)c1ccc(/C=C/c2ccc(O)c(CN3CCN(C)CCN(C)CC3)c2)cc1 [Compound L6] ), measured Compound λem (λmax of emission) is 455

Sample COc1cc(/C=C/c2ccc(N3CCCCC3)cc2)cc(CN2CCN(C)CCN(C)CC2)c1O [Compound L7] ; Compound λem (λmax of emission) observed: 460

Notebook: CCN(CC)c1ccc(/C=C/c2cc(CN3CCN(C)CCN(C)CC3)c(O)c(OC)c2)cc1 [Compound L5] , Compound λem (λmax of emission) read as 460

According to the records, this compound CNc1ccc(/C=C/c2cc(CN3CCN(C)CCN(C)CC3)c(O)c(OC)c2)cc1 [Compound L2] displays Compound λem (λmax of emission) of 460

Record CN1CCN(C)CCN(Cc2cc(/C=C/c3ccc(N(C)C)cc3)ccc2O)CC1 [Compound L4] , field Compound λem (λmax of emission): 455

Looking up CN1CCN(C)CCN(Cc2cc(/C=C/c3ccc(N4CCN(C)CC4)cc3)ccc2O)CC1 [Compound L12] , I found its Compound λem (λmax of emission) recorded as 450

Record COc1cc(/C=C/c2ccc(N3CCN(C)CC3)cc2)cc(CN2CCN(C)CCN(C)CC2)c1O [Compound L11] . Reported Compound λem (λmax of emission): 455

Looking up COc1cc(/C=C/c2ccc(N3CCOCC3)cc2)cc(CN2CCN(C)CCN(C)CC2)c1O [Compound L9] , I see its Compound λem (λmax of emission) listed as 455

The compound CNc1ccc(/C=C/c2ccc(O)c(CN3CCN(C)CCN(C)CC3)c2)cc1 [Compound L3] showed Compound λem (λmax of emission) equal to 455

These data points were gathered from paper PMC12156033.
